# TEST: ATG_AP_2_CIS: Attagene CIS-FACTORIAL HepG2 Assay for human Activator Protein 2 (AP-2) (AID 2282932)
# PARTICULARS: HepG2 AP-2 cis-reporter, Attagene transcription factor profiling; actives raise or lower the signal
The source made the active and inactive calls. How the source made its calls: active means hit-call score of the fitted dose curve at least 0.9, where 1 is the maximum; inactive means score below 0.9.
Use one of these outcomes when replying: active, inactive

Req: # lookup: test call for CC(C)N(C(=O)CCl)c1ccccc1
Resp: active

Req: # lookup: test call for CC(C)[N+](=O)[O-]
Resp: inactive

***
Req: # lookup: test call for CC(=Cc1ccccc1)[N+](=O)[O-]
Resp: active

Req: # lookup: test call for BrCC(Br)c1ccccc1 (stereo not drawn)
Resp: inactive

Req: # lookup: test call for O=C(CCl)NCO
Resp: inactive

Req: # lookup: test call for N#Cc1cccnc1
Resp: inactive

Req: # lookup: test call for C=C(C)C(=O)OCCCCOC(=O)C(=C)C
Resp: inactive

Req: # lookup: test call for CN(CCCC(O)c1cccnc1)N=O (stereo not drawn)
Resp: inactive

* * *

# Read-out: Transforming Growth Factor (TGFA), TGFA (gene 7039)
# TEST: LTEA_HepaRG_TGFA: Life Technologies and Expression Analysis (LTEA) Assay for Transforming Growth Factor (TGFA) using HepaRG (AID 2283532)
# PARTICULARS: mRNA level, 48 h; actives raise or lower the signal
Calls of active or inactive are those of the source. Rule for the calls: active = hit-call score of the fitted dose curve at least 0.9, where 1 is the maximum; inactive = score below 0.9.
Use one of these outcomes when replying: active, inactive

Below are worked cases with known answers.
Req: # lookup: test call for CN(C)C(=S)S
Resp: inactive

Req: # lookup: test call for N#Cc1cccnc1
Resp: inactive

Req: # lookup: test call for Clc1cccc(Cl)c1Cl
Resp: inactive

Req: # lookup: test call for O=C(O)C1(c2ccc3c(c2)OC[C@H](Cc2ccc(-c4ccccc4)cc2)[C@H]3O)CCCC1
Resp: inactive

Req: # lookup: test call for CCCCCCCCCCCCc1cccc(S(=O)(=O)O)c1
Resp: active

***
Req: # lookup: test call for Clc1cccc(Cl)c1
Resp: inactive

Req: # lookup: test call for CC(C)O.CC(C)O.OCCN(CCO)CCO.OCCN(CCO)CCO.[Ti]
Resp: inactive

* * *

# TARGET DESC: Heat shock factor protein 1 (Homo sapiens)
# TEST: ATG_HSE_CIS: Attagene CIS-FACTORIAL HepG2 Assay for human Heat Shock Transcription Factor 1 (HSE) (AID 2282953)
# PARTICULARS: HepG2 HSE cis-reporter, Attagene RNA transcription; actives raise or lower the signal
The source made the active and inactive calls. How the source made its calls: active means hit-call score of the fitted dose curve at least 0.9, where 1 is the maximum; inactive means score below 0.9.
Use one of these outcomes when replying: yes = active, no = inactive

Req: # lookup: test call for OC[P+](CO)(CO)CO
Resp: no

Req: # lookup: test call for O=C1c2ccccc2C(=O)C1C(=O)C(c1ccccc1)c1ccc(Cl)cc1 (centres undefined)
Resp: yes

Req: # lookup: test call for N#CS
Resp: no

Req: # lookup: test call for CCCCCCCCCCCCCl
Resp: no

Req: # lookup: test call for CC(C)(c1ccccc1)c1cc(-n2nc3ccccc3n2)c(O)c(C(C)(C)c2ccccc2)c1
Resp: no

***
Req: # lookup: test call for CC(C)=CC1C(C(=O)OCc2cccc(Oc3ccccc3)c2)C1(C)C (centres undefined)
Resp: no

Req: # lookup: test call for N#CCCC(Br)(C#N)CBr (centres undefined)
Resp: yes

Req: # lookup: test call for C1CN2CCN1CC2
Resp: no

Req: # lookup: test call for O=C(O)C1(c2ccc3c(c2)OC[C@H](Cc2ccc(-c4ccccc4)cc2)[C@H]3O)CCCC1
Resp: no

Req: # lookup: test call for CC(C=O)Cc1ccc2c(c1)OCO2 (centres undefined)
Resp: no

* * *

# TEST: CCTE_Shafer_MEA_acute_cross_correlation_HWHM: CCTE's Neural Acute Assay for Cross Correlation at Half Width at Half Maximum, Shafer Lab (AID 2284026);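 further: percent change per well from pre-dose baseline in spike cross-correlogram half width; hits are a decrease in cross-correlogram half width relative to DMSO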
Activity calls are given as the source filed them. The calls were made as follows: active = hit-call score of the fitted dose curve at least 0.9, where 1 is the maximum; inactive = score below 0.9.
Use one of these outcomes when replying: YES (active), NO (inactive)

Below are worked cases with known answers.
Req: # lookup: test call for N#Cc1cccnc1
Resp: NO

Req: # lookup: test call for Clc1cccc(Cl)c1Cl
Resp: NO

Req: # lookup: test call for OCCCCO
Resp: NO

***
Req: # lookup: test call for Oc1ccc(Cc2ccc(O)cc2)cc1
Resp: NO

Req: # lookup: test call for CC(C)(C)c1ccccc1O
Resp: YES

Req: # lookup: test call for CN(C)C(=S)S
Resp: NO

Req: # lookup: test call for CS(=O)(=O)c1ccc(C(=O)C2C(=O)CCCC2=O)c(Cl)c1COCC(F)(F)F
Resp: NO

Req: # lookup: test call for CCCCCCCCCCCCc1cccc(S(=O)(=O)O)c1
Resp: NO

* * *

# TARGET DESC: Transcription factor E2F1 (Homo sapiens) (UniProt Q01094)
# Sequence (Q01094 whole entry, looked up): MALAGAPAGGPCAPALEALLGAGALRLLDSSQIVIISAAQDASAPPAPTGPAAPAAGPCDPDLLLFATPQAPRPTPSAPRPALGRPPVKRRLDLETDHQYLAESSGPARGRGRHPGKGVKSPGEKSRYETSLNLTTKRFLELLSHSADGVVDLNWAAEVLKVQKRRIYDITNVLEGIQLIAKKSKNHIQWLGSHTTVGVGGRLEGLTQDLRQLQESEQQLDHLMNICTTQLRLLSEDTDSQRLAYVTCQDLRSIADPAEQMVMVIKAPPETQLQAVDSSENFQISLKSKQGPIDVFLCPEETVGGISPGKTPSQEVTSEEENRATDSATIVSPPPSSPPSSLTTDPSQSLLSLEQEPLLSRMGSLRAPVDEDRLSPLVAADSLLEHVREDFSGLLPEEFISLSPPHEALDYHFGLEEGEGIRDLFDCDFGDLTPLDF
# TEST: ATG_E2F_CIS: Attagene CIS-FACTORIAL HepG2 Assay for human E2F Transcription Factor 1 (AID 2282935)
# PARTICULARS: HepG2 Attagene cis-reporter, E2F reporter RNA transcripts; actives raise or lower the signal
The source made the active and inactive calls. How the source made its calls: active means hit-call score of the fitted dose curve at least 0.9, where 1 is the maximum; inactive means score below 0.9.
Use one of these outcomes when replying: true (1) for active, false (0) for inactive

Req: # lookup: test call for Cl[C@H]1OCCO[C@@H]1Cl
Resp: false (0)

***
Req: # lookup: test call for CCCCN(CCCC)C(=S)S
Resp: false (0)

Req: # lookup: test call for c1csc(-c2ccc(-c3cccs3)s2)c1
Resp: false (0)

Req: # lookup: test call for N#Cc1cccnc1
Resp: false (0)

Req: # lookup: test call for CCCCOP(=O)(CCCC)OCCCC
Resp: false (0)

Req: # lookup: test call for CCCCCCCCCCCCOS(=O)(=O)O
Resp: false (0)

Req: # lookup: test call for CN(N=O)C(N)=O
Resp: false (0)

Req: # lookup: test call for CCCCCCCCCCCCCCC(Br)C(=O)O (stereo not drawn)
Resp: true (1)

* * *

# Read-out: Vascular cell adhesion molecule 1 (VCAM1), VCAM1 (gene 7412)
# TEST: BSK_CASM3C_VCAM1: BioMAP Diversity Plus: CASM3C Assay for Vascular cell adhesion molecule 1 (VCAM1) Biomarker Activity (AID 2283055);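 further: VCAM-1 protein level quantified by ELISA on the cells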
# PARTICULARS: primary human coronary artery smooth muscle cells; actives raise or lower the signal
Calls of active or inactive are those of the source. Rule for the calls: active = hit-call score of the fitted dose curve at least 0.9, where 1 is the maximum; inactive = score below 0.9.
Use one of these outcomes when replying: active, inactive

Below are worked cases with known answers.
Req: # lookup: test call for O=C1C=CC(=O)c2ccccc21
Resp: active

Req: # lookup: test call for CCCCCCCCCCCCN(C)C
Resp: inactive

Req: # lookup: test call for Cc1cc(Cl)ccc1N
Resp: inactive

Req: # lookup: test call for Oc1ccc(Cc2ccc(O)cc2)cc1
Resp: inactive

Req: # lookup: test call for Oc1cccc(-c2ccccc2)c1
Resp: active

***
Req: # lookup: test call for C[C@]12CC[C@@H](O)C[C@@H]1CC[C@@H]1[C@@H]2CC[C@]2(C)C(=O)CC[C@@H]12
Resp: inactive

Req: # lookup: test call for Nc1c(Oc2ccccc2)cc(O)c2c1C(=O)c1ccccc1C2=O
Resp: inactive

* * *

# TEST: APR_HepG2_StressKinase_24hr: Apredica 24-hour HepG2 Assay for Stress Kinase (AID 2282922)
# PARTICULARS: HepG2 stress kinase (phospho-c-Jun) imaging, actives raise or lower the signal
Active and inactive are the calls of the source. How the source made its calls: active means hit-call score of the fitted dose curve at least 0.9, where 1 is the maximum; inactive means score below 0.9.
Use one of these outcomes when replying: active, inactive

Req: # lookup: test call for Oc1c(Cl)cc(Cl)cc1Cl
Resp: inactive

Req: # lookup: test call for CC(C)(C)c1ccccc1O
Resp: inactive

***
Req: # lookup: test call for Clc1cccc(Cl)c1
Resp: inactive

Req: # lookup: test call for O=C(N[C@H]1CN2CCC1CC2)c1ccc2c(c1)OCCO2
Resp: inactive

Req: # lookup: test call for O=C(O)C1(c2ccc3c(c2)OC[C@H](Cc2ccc(-c4ccccc4)cc2)[C@H]3O)CCCC1
Resp: active

* * *

# TEST: CCTE_Simmons_CellTiterGLO_HEK293T: Viability Assessment in CCTE's Assays for Thyroperoxidase (TPO) Inhibition, Simmons Lab (AID 2283665)
# Protocol: CCTE_Simmons_CellTiterGLO_HEK293T is a cell-based, single-readout assay that uses HEK293T, a human kidney cell line, with measurements taken at 24 hours after chemical dosing in a 384-well plate.CCTE_Simmons_CellTiterGLO_HEK293T is the assay component measured from the CCTE_Simmons_CellTiterGLO_HEK293T assay. It is designed to make measurements of ATP content, a form of viability reporter, as detected with bioluminescence signals by Luciferase-coupled ATP quantitation technology. […]
Records with an inconclusive call do not appear. Active and inactive are the calls of the source. Rule for the calls: active = hit-call score of the fitted dose curve at least 0.9, where 1 is the maximum; inconclusive = response in the unintended direction; inactive = score below 0.9.
Use one of these outcomes when replying: true for active, false for inactive

Below are worked cases with known answers.
Req: # lookup: test call for N#CS
Resp: false

Req: # lookup: test call for O=S1(=O)OC(c2cc(Br)c(O)c(Br)c2)(c2cc(Br)c(O)c(Br)c2)c2ccccc21
Resp: true

***
Req: # lookup: test call for CN(N=O)C(N)=O
Resp: false

Req: # lookup: test call for O=c1[nH]c(=O)n(Cl)c(=O)n1Cl
Resp: false

Req: # lookup: test call for CCOP(=S)(OCC)SCS(=O)(=O)C(C)(C)C
Resp: false
